Below, each entry is listed with its recorded selectivity ratio.
test details: Selectivity index, ratio of CC50 for human MT4 cells to EC50 for wild type HIV-1 3B reverse transcriptase infected in human MT4 cells
Type: toxicity, cell-based
measurement parameters: read-out: Ratio CC50/EC50

Solved cases below.
COc1cc(F)c(C(=O)c2ccnc(Cl)n2)c(F)c1    1
N#Cc1ccc(Nc2nccc(C(=O)c3c(F)cc(C#N)cc3F)n2)cc1    > 1120
N#Cc1ccc(Nc2ccnc(C(O)c3ccc(C#N)cc3)n2)cc1 (stereo unspecified)    1

**Q:** Fill in the blank: the reported selectivity ratio of `N#Cc1ccc(C(=O)c2nccc(Cl)n2)cc1` is ____.
**A:** < 0.29

**Q:** # input molecule: `COc1cc(F)c(C(=O)c2ccnc(Nc3ccc(C#N)cc3)n2)c(F)c1` ; wanted: its selectivity ratio
**A:** > 14200

**Q:** Requested read-out: selectivity ratio. Entry: `N#Cc1ccc(Nc2ncc(Br)c(C(=O)c3ccc(C#N)cc3)n2)cc1`
**A:** > 7.7

**Q:** Item `COc1cc(F)c(C(=O)c2nc(Nc3ccc(C#N)cc3Br)ncc2Br)c(F)c1` has what recorded selectivity ratio?
**A:** > 3.02

**Q:** So what does the record say about selectivity ratio for `COc1cc(F)c(C(=O)c2nc(Nc3ccc(C#N)cc3)ncc2Br)c(F)c1` ?
**A:** 561

**Q:** Name the recorded selectivity ratio for `N#Cc1ccc(C(=O)c2ccnc(Cl)n2)cc1` .
**A:** < 0.56

**Q:** Form field: reported selectivity ratio of `O=C(c1ccnc(Cl)n1)c1c(F)cc(Br)cc1F`
**A:** 1

**Q:** Query (molecule): `COc1ccc(C(=O)c2nc(Nc3ccc(C#N)cc3)ncc2Br)cc1` ; field requested: selectivity ratio
**A:** < 0.04
